Data origin: patent US8039487B2

target or system: liver carnitine palmitoyl transferase 1 (L-CPT1) (Homo sapiens)
Construct: made in house; host or cells: Pichia pastoris strain X-33 (crude cell-free extract)
Sequence (P50416 whole entry): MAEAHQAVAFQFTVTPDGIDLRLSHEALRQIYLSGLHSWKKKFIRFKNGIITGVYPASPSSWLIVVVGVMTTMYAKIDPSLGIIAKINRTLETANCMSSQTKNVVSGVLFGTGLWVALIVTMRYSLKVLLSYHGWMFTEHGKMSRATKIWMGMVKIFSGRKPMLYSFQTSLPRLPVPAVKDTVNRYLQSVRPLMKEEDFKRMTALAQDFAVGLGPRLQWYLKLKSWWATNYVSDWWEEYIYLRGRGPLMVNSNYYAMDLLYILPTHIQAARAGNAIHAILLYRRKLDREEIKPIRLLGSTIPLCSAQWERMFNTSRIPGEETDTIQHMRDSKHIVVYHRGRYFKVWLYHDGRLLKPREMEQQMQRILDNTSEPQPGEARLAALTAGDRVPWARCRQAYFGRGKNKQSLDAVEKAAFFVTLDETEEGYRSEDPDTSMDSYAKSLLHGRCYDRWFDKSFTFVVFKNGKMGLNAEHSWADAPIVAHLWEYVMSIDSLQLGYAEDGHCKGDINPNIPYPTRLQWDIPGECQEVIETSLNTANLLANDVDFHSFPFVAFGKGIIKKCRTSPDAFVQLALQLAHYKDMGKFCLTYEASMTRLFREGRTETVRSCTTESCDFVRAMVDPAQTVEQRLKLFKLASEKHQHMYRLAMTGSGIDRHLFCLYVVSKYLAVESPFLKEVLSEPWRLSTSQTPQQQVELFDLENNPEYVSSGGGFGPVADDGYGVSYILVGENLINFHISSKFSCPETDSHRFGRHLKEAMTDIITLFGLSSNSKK
assay procedure: L-CPT1 inhibition, spectrophotometric CPT activity assay with DTNB (Ellman's reagent)
Format: biochemical
particulars: human liver CPT1 expressed in P. pastoris, cell extracts; carnitine 500 μM, palmitoyl-CoA 80 μM, DTNB 300 μM, pH 7.4
Please use true (1) for IC50 under 80 nM and false (0) for everything else, ties included.

Here are 3 compounds together with their reported answers.
O=C1Cc2cc(-c3csc([C@H]4CCCCN4C(=O)COc4ccccc4)n3)ccc2N1 [Example 14]    true (1)
O=C(COc1ccccc1)N1CCCC[C@@H]1c1csc(C2COc3ccccc3O2)n1 (stereo partly shown) [Example 38]    false (0)
Cc1ccc(-c2nc([C@H]3CCCCN3C(=O)COc3ccccc3)cs2)cn1 [Example 30]    false (0)

query: Does this compound meet the criterion IC50 < 80 nM? COc1ccccc1-c1csc([C@H]2CCCCN2C(=O)COc2ccccc2)n1 [Example 11]
result: false (0)

query: And for O=C(O)c1ccc(-c2nc([C@H]3CCCCN3C(=O)COc3ccccc3)cs2)cc1 [Example 41] ?
result: false (0)

query: And for N#Cc1cccc(-c2csc([C@H]3CCCCN3C(=O)COc3ccccc3)n2)c1 [Example 21] ?
result: true (1)

query: And for COc1ccc(Cl)cc1-c1csc([C@H]2CCCCN2C(=O)COc2ccccc2)n1 [Example 9] ?
result: false (0)
